Experiment: Cytotoxicity against HUVEC
Assay type: cell-based
Protocol Conditions: human, read-out: ED50 (the source's name)
This listing pairs compounds with measured CC50.
Give just the number in µg/mL; leave the unit off.

See these solved cases before continuing.
COc1ccc(-c2oc3cc(OC)c(OC)c(O)c3c(=O)c2OC)cc1O    0.6
CCC(=O)Oc1cc(-c2oc3cc(OC)c(OC)c(OC(=O)CC)c3c(=O)c2OC)ccc1OC    6.5
CCCCCC(=O)Oc1cc(-c2oc3cc(OC)c(OC)c(OC(=O)CCCCC)c3c(=O)c2OC)ccc1OC    11.1
COc1ccc(-c2oc3cc(OC)c(OC)c(O)c3c(=O)c2OC)cc1OC(=O)c1ccccc1    20
C=CCCC(=O)Oc1cc(-c2oc3cc(OC)c(OC)c(OC(=O)CCC=C)c3c(=O)c2OC)ccc1OC    5.5

Read the next record carefully.
Look at this compound and give its reported CC50. COc1ccc(-c2oc3cc(OC)c(OC)c(OC(C)=O)c3c(=O)c2OC)cc1OC(C)=O
0.1

Reference source for all entries: ChEMBL document CHEMBL1146542
